Solubility values for the compounds below.
Assay: Solubility test in water and FaSSIF
Type: physicochemical
Settings: Water, 37° C., up to 24 hours
Give just the number in mg/mL; leave the unit off.

// known answers, use as guide
INSERT INTO assay_data (compound, value_observed) VALUES
  ('CC(C)C(N)C(=O)OC1CC2C3(C)CC(O)C(C4(C)CCC(C(C)(C)O)O4)C3(C)CCC23CC32CCC(F)(F)C(C)(C)C12.Cl (mixture of isomers)', 0.77),
  ('Br.CC(C)(O)C1CCC(C)(C2C(O)CC3(C)C4CC(OC(=O)CN)C5C(C)(C)C(F)(F)CCC56CC46CCC23C)O1 (centres unmarked)', 0.95),
  ('CC(NC(=O)C(N)CC(N)=O)C(=O)OC1CC2C3(C)CC(O)C(C4(C)CCC(C(C)(C)O)O4)C3(C)CCC23CC32CCC(F)(F)C(C)(C)C12.Cl (centres unmarked)', 1.18);

Entry under review: CC(C)(O)[C@@H]1CC[C@@](C)([C@H]2[C@@H](O)C[C@@]3(C)[C@@H]4C[C@H](OC(=O)[C@@H](N)CCCNC(=N)N)[C@H]5C(C)(C)C(F)(F)CC[C@@]56C[C@@]46CC[C@]23C)O1.Cl.Cl . Reported Solubility? 2.3

One more compound: CN(CC(=O)OC1CC2C3(C)CC(O)C(C4(C)CCC(C(C)(C)O)O4)C3(C)CCC23CC32CCC(F)(F)C(C)(C)C12)C(=O)C(N)Cc1ccccc1.Cl (centres unmarked) 0.65
